Cited source: patent US4874856A

Below, each of the compounds is paired with its reported bioavailability value.
Experiment: Bioavailability in mouse as reflected by blood levels (Table 5)
Format: in vivo
Conditions: oral, Table 5 (definition given as drawing 18)
Please respond with the number in % and leave the unit unwritten.

{"columns": ["Compound", "bioavailability [%]"],
 "data": [
  ["C/C=C\\C1=C(C(=O)OC(C)OC(=O)CC2CCCCC2)N2C(=O)C(NC(=O)/C(=N\\O)c3csc(N)n3)[C@H]2SC1 (stereo partly shown)", 87],
  ["C/C=C\\C1=C(C(=O)OC(C)OC(=O)OC2CCCCC2)N2C(=O)C(NC(=O)/C(=N\\O)c3csc(N)n3)[C@H]2SC1 (stereo partly shown)", 78],
  ["C/C=C\\C1=C(C(=O)OC(C)OC(C)=O)N2C(=O)[C@@H](NC(=O)/C(=N\\O)c3csc(N)n3)[C@H]2SC1 (stereo partly shown)", 76]
]}

Let us examine a further case.
The value of bioavailability measured for the compound C/C=C\C1=C(C(=O)OC(C)OC(=O)C(C)(C)C)N2C(=O)C(NC(=O)/C(=N\O)c3csc(N)n3)[C@H]2SC1 (stereo partly shown) turned out to be 60
